Target: T1, human CD131 (human, UniProt P32927 17-897)
T1 sequence: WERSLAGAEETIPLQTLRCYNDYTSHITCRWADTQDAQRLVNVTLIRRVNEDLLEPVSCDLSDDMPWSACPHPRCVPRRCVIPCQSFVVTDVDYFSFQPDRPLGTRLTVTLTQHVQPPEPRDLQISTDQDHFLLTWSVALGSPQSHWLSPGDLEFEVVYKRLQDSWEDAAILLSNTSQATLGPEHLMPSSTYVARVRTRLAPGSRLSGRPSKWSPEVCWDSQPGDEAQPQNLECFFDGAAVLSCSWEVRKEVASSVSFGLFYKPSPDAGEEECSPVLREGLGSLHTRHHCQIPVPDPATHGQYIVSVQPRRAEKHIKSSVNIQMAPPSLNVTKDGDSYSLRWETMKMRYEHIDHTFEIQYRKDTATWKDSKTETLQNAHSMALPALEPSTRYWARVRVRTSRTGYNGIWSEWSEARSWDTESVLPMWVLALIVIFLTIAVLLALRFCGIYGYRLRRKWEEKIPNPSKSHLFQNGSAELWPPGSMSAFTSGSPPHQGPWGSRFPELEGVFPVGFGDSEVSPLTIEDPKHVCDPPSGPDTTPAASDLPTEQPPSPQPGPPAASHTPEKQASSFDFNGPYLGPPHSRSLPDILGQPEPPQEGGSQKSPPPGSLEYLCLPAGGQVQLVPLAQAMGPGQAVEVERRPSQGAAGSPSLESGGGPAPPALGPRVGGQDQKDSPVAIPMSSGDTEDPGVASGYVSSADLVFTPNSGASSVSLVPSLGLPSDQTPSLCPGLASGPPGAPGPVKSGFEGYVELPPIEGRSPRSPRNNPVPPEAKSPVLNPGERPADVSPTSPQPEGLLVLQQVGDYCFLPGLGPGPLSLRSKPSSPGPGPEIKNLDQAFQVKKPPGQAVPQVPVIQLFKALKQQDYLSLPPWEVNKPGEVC
Assay: cell-based or functional assay
PARAMETER MEASURED: IC50 GM-CSF, TF-1 proliferation (nM)
Reply numerically in nM, unit not repeated.

{"columns": ["BINDER", "IC50 GM-CSF, TF-1 proliferation (nM)"],
 "data": [
  ["9A2-VR24.30 (antibody, V domains shown) VH: EVQLLESGGGLVQPGGSLRLSCAASGFTFPWYRVHWVRQAPGKGLEWVSSIRSSGGFPYYNRRVKGRFTISRDNSKNTLYLQMNSLRAEDTAVYYCARFYDSFFDIWGQGTMVTVSS VL: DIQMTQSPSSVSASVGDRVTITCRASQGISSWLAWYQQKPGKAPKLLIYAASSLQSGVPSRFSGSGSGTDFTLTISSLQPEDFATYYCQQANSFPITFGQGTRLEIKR", 0.25],
  ["9A2-VR24.12 (antibody, V domains shown) VH: EVQLLESGGGLVQPGGSLRLSCAASGFTFPWYRVHWVRQAPGKGLEWVSSIHTHYQYTYYADSVKGRFTISRDNSKNTLYLQMNSLRAEDTAVYYCARFYDSFFDIWGQGTMVTVSS VL: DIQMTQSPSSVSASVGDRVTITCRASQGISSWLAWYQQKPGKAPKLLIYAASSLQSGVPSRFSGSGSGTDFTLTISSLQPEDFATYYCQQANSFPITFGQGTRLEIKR", 0.93]
]}

Shift focus to the following entry.
For the binder 9A2-VR24.111 (antibody, V domains shown) VH: EVQLLESGGGLVQPGGSLRLSCAASGFTFPWYRVHWVRQAPGKGLEWVSSIRSSGGFPMYNPHVKGRFTISRDNSKNTLYLQMNSLRAEDTAVYYCARFYDSFFDIWGQGTMVTVSS VL: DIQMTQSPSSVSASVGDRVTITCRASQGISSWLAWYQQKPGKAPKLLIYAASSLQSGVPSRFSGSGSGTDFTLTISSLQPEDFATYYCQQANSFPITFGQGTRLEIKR , give its measured IC50 GM-CSF, TF-1 proliferation value.
0.42

Each recorded value in this set is attributed to patent US20190062438A1.
